Measured inhibition, listed per entry for reference.
- study.system: Endonuclease 8-like 2 (Homo sapiens);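 also: fluorescence at 594 nm reports NEIL2 cutting and release of a quenched double-stranded DNA oligo substrate, reduced signal read as inhibition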
- condition.set: Compound Concentration 10.0 uM, Hit No
- Description: Inhibition of NEIL2 by quantifying inhibition of NEIL2-mediated cleavage and dissociation of quenched duplex DNA oligonucleotides, measured as fluorescence at 594 nm.
Report only the number, with the unit % understood.

Check out these entries, answers already filled in.
Cn1ncc2c(-c3c(-c4ccc(F)cn4)nn4c3COC(C)(C)C4)ccnc21; -5.34
C[C@@]1(Cc2ccc(C#N)cc2)C(=O)N(c2cc(Cl)cc(Cl)c2)c2ncc(C(=O)NC3(c4nc(C5CCC5)no4)CC3)n21; -9.93
CC(=O)Nc1ccc(-c2cc(-c3ccccc3)nc3cc(C(=O)NCCCn4ccnc4)nn23)cc1; -6.36

Notebook entry, Endonuclease 8-like 2 (Homo sapiens) assay: inhibition of "COc1ccccc1/C=N/NC(=O)COc1ccc(Cl)cc1C" = ?
-3.15

Notebook entry, Endonuclease 8-like 2 (Homo sapiens) assay: inhibition of "CCCCCCCCc1ccc(CCC(N)(CO)CO)cc1" = ?
-1.98

Notebook entry, Endonuclease 8-like 2 (Homo sapiens) assay: inhibition of "OCCn1cc(-c2cnc3nnn(Cc4ccc5ncccc5c4)c3n2)cn1" = ?
-5.15
